B1: PDS5B (parent)
chain: IYKKYALQSAAGKDAAKQIAWIKD

# Variants of: B1
# Measurement notes: protein stability index of a GFP-peptide fusion (GPS, HEK-293T) (PSI 1-6); higher = more stable;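 further: lentivirally expressed fusions sorted by FACS into six bins by GFP to DsRed ratio, PSI derived from sequencing read proportions per bin multiplied by bin number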
# Condition summary: c terminus: a fixed tail appended
Readout kind: protein stability index
// no unit string in output, number only

A11N    2.61
A15V    1.71
I19A    2.48
Q8V    2.17
K23C    1.47
G12W    2.63

Asked: I would be grateful if you could share the reported protein stability index for Y5K .
Given back: 2.93
